// provenance: patent US20090023731A1

The compounds listed here are annotated with their % Inh.
Tested on: soluble epoxide hydrolase (sEH)
experimentNotes: Fluorescent assay for mouse and human soluble epoxide hydrolase (CMNPC substrate)
Type: biochemical
particulars: inhibitor conc. 500 nM
reportedProperty: % Inh (%)

compound="O=C(Nc1cccc(OCCCN2CCOCC2)c1)Nc1ccc(F)cc1F [Compound 5]" reportedproperty="% Inh" unittext=% assayresult=78
compound="O=C(CC12CC3CC(CC(C3)C1)C2)NC1CCC(OCCCN2CCOCC2)CC1 (stereo not shown) [Compound 50]" reportedproperty="% Inh" unittext=% assayresult=85
compound="O=C(Nc1cccc(OCCCN2CCOCC2)c1)c1ccc(C(F)(F)F)cc1 [Compound 36]" reportedproperty="% Inh" unittext=% assayresult=79
compound="O=C(CNC12CC3CC(CC(C3)C1)C2)Nc1cccc(OCCCN2CCOCC2)c1 [Compound 58]" reportedproperty="% Inh" unittext=% assayresult=81
compound="O=C(Nc1ccc(Oc2cccc(C(=O)O)c2)cc1)Nc1ccc(C(F)(F)F)cc1 [Compound 60]" reportedproperty="% Inh" unittext=% assayresult=92
compound="O=C(Nc1ccc(F)cc1)Nc1ccc(F)c(OCCCN2CCOCC2)c1 [Compound 31]" reportedproperty="% Inh" unittext=% assayresult=78
compound="O=C(Cc1ccc(C(F)(F)F)cc1)Nc1cccc(OCCCN2CCOCC2)c1 [Compound 24]" reportedproperty="% Inh" unittext=% assayresult=88
compound="O=C(Nc1ccc(Cl)cc1)Nc1ccc(F)c(OCCCN2CCOCC2)c1 [Compound 30]" reportedproperty="% Inh" unittext=% assayresult=96
compound="O=C(Nc1ccccc1)Nc1cccc(OCCCN2CCOCC2)c1 [Compound 1]" reportedproperty="% Inh" unittext=% assayresult=62
compound="O=C(Nc1ccc(OCCN2CCOCC2)cc1)Nc1cccc(OCCCN2CCOCC2)c1 [Compound 18]" reportedproperty="% Inh" unittext=% assayresult=66

====

Test system: soluble epoxide hydrolase (sEH)
experimentNotes: Fluorescent assay for mouse and human soluble epoxide hydrolase (CMNPC substrate)
Type: biochemical
particulars: inhibitor conc. 5000 nM
Protocol: Recombinant mouse sEH (MsEH) and human sEH (HsEH) were produced in a baculovirus expression system as previously reported. […] The expressed proteins were purified from cell lysate by affinity chromatography. […] Protein concentration was quantified using the Pierce BCA assay using bovine serum albumin as the calibrating standard. The IC50s for each inhibitor were according to the following procedure: […] Incubate the plate for 5 minutes in the plate reader at 30° C. […]
Respond with Yes for % Inh values of 90% and above, No for values below.

compound="O=C(Cc1ccc(OC(F)(F)F)cc1)Nc1ccc(OCCCN2CCOCC2)cc1 [Compound 35]" qualitativelabel=Yes
compound="O=C(Cc1ccccc1)Nc1ccc(OCCCN2CCOCC2)cc1 [Compound 25]" qualitativelabel=No
compound="O=C(Cc1ccc2c(c1)OCO2)Nc1cccc(OCCCN2CCOCC2)c1 [Compound 12]" qualitativelabel=No
compound="O=C(Nc1ccc(Oc2cccc(C(=O)O)c2)cc1)NC12CC3CC(CC(C3)C1)C2 [Compound 59]" qualitativelabel=Yes
compound="O=C(Nc1cccc(OCCCN2CCOCC2)c1)Nc1c(F)c(F)c(F)c(F)c1F [Compound 7]" qualitativelabel=No
compound="CC(C)(C)NC(=O)Nc1cccc(OCCCN2CCOCC2)c1 [Compound 42]" qualitativelabel=No
compound="CC(C)(C)CC(=O)Nc1cccc(OCCCN2CCOCC2)c1 [Compound 44]" qualitativelabel=No
compound="CN(C)c1cccc(NC(=O)Nc2cccc(OCCCN3CCOCC3)c2)c1 [Compound 17]" qualitativelabel=Yes
